testedOn: HIV-1 protease (Human immunodeficiency virus type 1 group M subtype B)
methodDescription: biochemical
conditionInfo: Table II; enzyme HIV-1; DOSE 0.370 (unit not given)
Response key: class 1 means PROTEASE % INHIB. >= 90%; class 0 means PROTEASE % INHIB. < 90%.

Solved cases below.
# compound, labelClass
measured = [
    ("CCC(C1=C(O)CC(CCc2ccccc2)(CCc2ccccc2)OC1=O)c1cccc(NS(=O)(=O)c2cn(C)cn2)c1 (stereo not drawn) [Example 330]", "class 1"),
    ("Nc1ccc(S(=O)(=O)Nc2cccc(CC3=C(O)CC(CCc4ccccc4)(CCc4ccccc4)OC3=O)c2)nc1 [Example 354]", "class 0"),
    ("CCC[C@]1(CCc2ccc(F)cc2)CC(O)=C([C@H](c2cccc(NS(=O)(=O)c3cn(C)cn3)c2)C(C)(C)C)C(=O)O1 (single isomer, unassigned) [Example 352]", "class 0"),
]

Attention now shifts to the item below.
State whether the measured PROTEASE % INHIB. reaches 90%, counting equality as reaching it, for CCC(C1=C(O)CC(CCc2ccccc2)(CCc2ccccc2)OC1=O)c1cccc(NS(=O)(=O)c2ccc(C#N)cn2)c1 (stereo not drawn) [Example 331]
class 1
